# Target Or Test System: T1, Biotin-huCGRPaSA (human, not fully specified; biotin (position not given))
# T1 construct: exact construct ('aSA') not explained; also called Biotin CGRPaSA; full-length (1-37) CGRP
# T1 peptide: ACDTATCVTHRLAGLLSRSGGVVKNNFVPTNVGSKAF
# Procedure Details: ELISA, supernatant; relative to chimeric C245
# binarize Relative binding activity, %: threshold 60% inclusive, high side T, low side F

>>> assigned_class("hu237 (antibody, V domains shown, 3C1 HC-4/3C1 LC-4) VH: QVQLVQSGAEVKKPGASVKVSCKASGYTFTGYTMNWVRQAPGQGLEWMGLINPYIGNTHYNQKFKDRVTFTVDRSSSTAYMELSRLRSDDTAVYYCARELDSGFDYWGQGTLVTVSS VL: DVVMTQSPDSLAVSLGERATINCRSSQNIVHSNADTYLEWYQQKPGQPPKLLIYKVSNRFSGVPDRFSGSGSGTDFTLTISSLQAEDVAVYYCYQGSHVPWTFGQGTKLEIK")
"T"
>>> assigned_class("hu72 (antibody, V domains shown, 1F5 HC-4/1F5 LC1-3) VH: QVQLVQSGSELKKPGASVKVSCKASGYTFTDFNMHWVRQAPGQGLEWMGYIYPYNGDVVYNQNFTNRFVLSVDSSSSTAYLQISSLKAEDTAVYYCAREGLGGYWGQGTLVTVSS VL: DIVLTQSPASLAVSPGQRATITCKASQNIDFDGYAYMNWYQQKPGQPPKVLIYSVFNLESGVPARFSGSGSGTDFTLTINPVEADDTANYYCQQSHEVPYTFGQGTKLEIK")
"T"
>>> assigned_class("hu1 (antibody, V domains shown, 1B2 HC-1/1A2 LC2-1) VH: QVQLVQSGAEVKKPGASVKVSCKASGYTFTDYNMHWVRQAPGQGLEWMGYIFPYNGVAVYNRKFRSRVTLTIDTSSSTAYMELRSLRSDDTAVYYCAREGLGGYWGQGTLVTVSS VL: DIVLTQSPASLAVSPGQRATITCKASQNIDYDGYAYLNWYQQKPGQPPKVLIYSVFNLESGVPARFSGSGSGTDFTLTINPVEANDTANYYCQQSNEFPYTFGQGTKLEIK")
"F"
>>> assigned_class("hu192 (antibody, V domains shown, 3E5 HC-4/2B8 LC2-2) VH: QVQLVQSGAEVKKPGASVKVSCKTSGYTFTDYNMHWVRQAPGQRLEWMGYISPYNAGTAYNQKFKFRVTLTVDTSSSTAYMELSSLRSEDTAVYYCAREGLGGYWGQGTLVTVSS VL: DVQLTQSPSFLSASVGDRVTITCQASQNIDGNTYMNWYQQKPGKAPKVLIYSIFNLESGVPSRFSGSGSGTEFTLTISSLQPEDFATYYCQQSNDYPYTFGQGTKLEIK")
"F"
